Origin of measurements: patent US20180355014A1

- assay-target: T1, HLA-B*08:01 (human)
- T1 construct: Recombinant MHC class I molecule without the test peptide; the peptide is the other partner
- run-description: REVEAL MHC-peptide binding assay, recombinant HLA-B*08:01
Field: In Vitro Score. Provide a value for each of the binders that follow.

So, IFWVQRGSK (synthetic 9-mer; the entry already carries the mutations) [IFWVQRGSK (SEQ ID NO: 78)] ? Its In Vitro Score was 0 % of positive control peptide

So, FWVKRGSKK (synthetic 9-mer; the entry already carries the mutation) [FWVKRGSKK (SEQ ID NO: 59)] ? Its In Vitro Score was 0.1 % of positive control peptide

So, WVKRGRKKL (synthetic 9-mer) [WVKRGRKKL (SEQ ID NO: 22)] ? Its In Vitro Score was 28.5 % of positive control peptide

So, FWVKRGRKK (synthetic 9-mer) [FWVKRGRKK (SEQ ID NO: 21)] ? Its In Vitro Score was 0 % of positive control peptide

So, WVHRGRKKL (synthetic 9-mer; the entry already carries the mutation) [WVHRGRKKL (SEQ ID NO: 43)] ? Its In Vitro Score was 19.2 % of positive control peptide

So, FWVSRGRKK (synthetic 9-mer; the entry already carries the mutation) [FWVSRGRKK (SEQ ID NO: 28)] ? Its In Vitro Score was 0 % of positive control peptide

So, FIIFWVSRG (synthetic 9-mer; the entry already carries the mutation) [FIIFWVSRG (SEQ ID NO: 25)] ? Its In Vitro Score was 0.4 % of positive control peptide

So, FWVKRGAKK (synthetic 9-mer; the entry already carries the mutation) [FWVKRGAKK (SEQ ID NO: 71)] ? Its In Vitro Score was 0.3 % of positive control peptide

So, IIFWVQRGS (synthetic 9-mer; the entry already carries the mutations) [IIFWVQRGS (SEQ ID NO: 77)] ? Its In Vitro Score was 0.1 % of positive control peptide

So, WVKRGRKKS (synthetic 9-mer; the entry already carries the mutation) [WVKRGRKKS (SEQ ID NO: 89)] ? Its In Vitro Score was 4.3 % of positive control peptide
